Where do the numbers come from? From patent US5972939A.

molecular target: motilin receptors located on the colon of mature rabbits (Oryctolagus cuniculus); construct: The colon from mature New Zealand rabbits was removed, dissected free from the mucosa and serosa layers, and diced into small pieces; from tissue; host or cells: colon smooth muscle of mature New Zealand rabbits, crude membrane homogenate; assay: competition with radiolabeled (125I) porcine motilin for the motilin receptors of rabbit colon; type: binding; settings: rabbit colon, 125I motilin; read-out: IC50 (unit inferred)
Sequence (G1T803 1-400): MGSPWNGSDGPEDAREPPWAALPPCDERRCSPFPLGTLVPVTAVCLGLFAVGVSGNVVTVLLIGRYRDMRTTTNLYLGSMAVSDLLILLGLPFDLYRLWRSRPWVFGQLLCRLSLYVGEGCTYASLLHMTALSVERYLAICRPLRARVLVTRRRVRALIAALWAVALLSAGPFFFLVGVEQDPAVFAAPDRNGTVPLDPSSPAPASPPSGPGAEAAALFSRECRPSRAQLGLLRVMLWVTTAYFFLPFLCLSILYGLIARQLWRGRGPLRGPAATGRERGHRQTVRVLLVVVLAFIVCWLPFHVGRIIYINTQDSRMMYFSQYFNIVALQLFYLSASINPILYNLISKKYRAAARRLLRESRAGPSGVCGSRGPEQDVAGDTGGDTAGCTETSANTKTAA
propertyName: pIC50
Kindly note that pIC50 refers to -log10 of the concentration in mol/L and answer with the value alone.

## Input Look up pIC50 with motilin receptors located on the colon of mature rabbits (Oryctolagus cuniculus) for this compound: CCN(CC)CCN(CC1=CC(Cc2ccccc2)(NC(=O)C(Cl)(Cl)Cl)CC1)c1cccc(OCCN2CCOCC2)c1 (stereo not shown)
## Output 6.52

## Input Form entry - test system: motilin receptors located on the colon of mature rabbits (Oryctolagus cuniculus); read-out: pIC50; compound: CN(C)CCSc1ccc(NCC2=CC(Cc3ccccc3)(NC(=O)C(Cl)(Cl)Cl)CC2)cc1 (stereo not shown)
## Output 5.82

## Input What is its pIC50 for motilin receptors located on the colon of mature rabbits (Oryctolagus cuniculus)? Entry: CCN(CC)CCN(CC1=CC(Cc2ccccc2)(NC(=O)C(Cl)(Cl)Cl)CC1)c1cccc(OCCN2CCCCC2)c1 (stereo not shown)
## Output 6.22

## Input # query: pIC50 | item CCN(CC)CCOc1cccc(CN(CC2=CC(Cc3ccccc3)(NC(=O)C(Cl)(Cl)Cl)CC2)C2CCN(Cc3ccccc3)CC2)c1 (stereo not shown) | system: motilin receptors located on the colon of mature rabbits (Oryctolagus cuniculus)
## Output 6.10
